- Tested on: U2OS
- TEST_METHOD_NOTES: Incucyte cell viability with U2OS; note: unitless GR value; below 1 slowed growth and below 0 cell loss
- Format: toxicity, cell-based
- RUN_PARAMETERS: human, 12 h, 10 µM, compound concentration 10 uM, replicate number 1, timepoint 12 hours
Where a SMILES comes first, the peptide text is derived from it. [ ]: non-standard residue; d: D form.
Please note: Yes applies when Growth Rate is 0.7 or greater, and No applies otherwise.

| COMPOUND | CLASS_NAME |
| --- | --- |
| CC(C)C[C@@H]1NC(=O)[C@@H](C(C)C)NC(=O)[C@@H]2CCCN2C(=O)[C@@H](CC(=O)O)NC(=O)[C@@H](Cc2c[nH]c3ccccc23)NC1=O [BQ-123] (cyclo(L[dW][dD]P[dV])) | No |
| Cl.O=C(O)c1cc(-c2ccc(C3CCNCC3)cc2)c2ccc(-c3ccc(C(F)(F)F)cc3)cc2c1 | Yes |
| CSc1ccccc1N1CCN(CCCCCC(=O)NC2CCCc3ccccc32)CC1.Cl (configuration not stated) | No |
| Cc1cc(Nc2ncc(Cl)c(Nc3ccccc3S(=O)(=O)C(C)C)n2)c(OC(C)C)cc1C1CCNCC1 | No |
| CO[C@H]1CC[C@@H](C(=O)c2ccc3nc4c(cc3c2)CCCO4)CC1 | No |
| CN[C@@H](C)C(=O)N[C@H](C(=O)N1CCC[C@H]1C(=O)Nc1snnc1-c1ccccc1)C1CCCCC1 | No |
| CN(C)[C@H]1CN(C2CCc3cccc(F)c32)C[C@@H]1c1ccc(N2CCN(S(C)(=O)=O)CC2)cc1 (some centres not stated) | No |
| COc1ccc(NC(=O)c2ccc(-c3ccc(-c4noc(C)n4)cc3C)cc2)cc1OCCN(C)C.Cl | No |
| CCc1nc2c(C)cc(C)nc2[nH]1 | No |
| Cc1nccc(COC(=O)N2C[C@@H]3[C@@H](CNC(=O)c4ccc5[nH]nnc5c4)[C@@H]3C2)n1 | Yes |
| COCCN1CCC(c2cc(CN(C)C(=O)c3cccc(Oc4ccccc4)c3)ccn2)CC1 | Yes |
| CC1=C(C)C(=O)C(C(C)(C)CC(=O)N(CCCCSC[C@H]2O[C@@H](n3cnc4c(N)ncnc43)[C@@H]3OC(C)(C)O[C@@H]32)Cc2cccc(-c3ccc(Cl)cc3)c2)=C(C)C1=O | No |
| COC(=O)[C@H](CCCNC(=N)N)NC(=O)CCCc1c(-c2ccccc2)[nH]c2c(F)cc(F)cc12.O=C(O)C(F)(F)F | No |
| CC(C)Oc1ccc(-c2nc(-c3cccc4c3CC[C@@H]4NCCO)no2)cc1C#N | No |
| Cl.N=C(N)NC(=O)Cc1c(Cl)cccc1Cl [GUANFACINE HYDROCHLORIDE] | Yes |
